Reference for the values: the supplement of paper PMC10127200

Tested on: DU145
Test description: Euclidean distance of Cell Painting phenotypic profile (signed KS, 77 features) to DMSO centroid (dimensionless distance); 5 or 10 uM (library dependent); higher = stronger phenotypic change vs DMSO (phenoactivity)
Condition context: 48 h
Where a name gives a salt, the structure may show the parent alone.
The molecules listed here are annotated with their Euclidean distance.
The answer should be written as a number, with no unit following it.

Solved cases below.
{"Molecule": "CC1(C)[C@@H](O[C@H]2O[C@H](C(=O)O)[C@@H](O)[C@H](O)[C@H]2O[C@@H]2O[C@H](C(=O)O)[C@@H](O)[C@H](O)[C@H]2O)CC[C@]2(C)[C@H]3C(=O)C=C4[C@@H]5C[C@@](C)(C(=O)O)CC[C@]5(C)CC[C@@]4(C)[C@]3(C)CC[C@@H]12 [Diammonium Glycyrrhizinate]", "Quantitative readout": 1.1}
{"Molecule": "C#C[C@]1(O)CC[C@H]2[C@@H]3CCC4=Cc5oncc5C[C@]4(C)[C@H]3CC[C@@]21C [Danazol]", "Quantitative readout": 1.43}
{"Molecule": "COc1ccc(-c2cc(=O)c3c(O)cc(O[C@@H]4O[C@H](CO[C@@H]5O[C@@H](C)[C@H](O)[C@@H](O)[C@H]5O)[C@@H](O)[C@H](O)[C@H]4O)cc3o2)cc1O [Diosmin]", "Quantitative readout": 1.01}
{"Molecule": "CCCCCCCCCC(=O)CC(O)S(=O)(=O)O (configuration not stated) [Sodium Houttuyfonate]", "Quantitative readout": 1.5}

Lookup: Entry O=C1c2cccc(O)c2C(=O)c2c(O)cccc21 [Danthron] : reported Euclidean distance = ?
Found: 1.19

Lookup: Entry CCCN[C@H]1CCc2nc(N)sc2C1 [Pramipexole dihydrochloride] please
Found: 1.16

Lookup: // next record Cc1ccc(F)c(NC(=O)Nc2ccc(-c3cccc4[nH]nc(N)c34)cc2)c1 [Linifanib (ABT-869)]
Found: 1.64
